- Target of assay: T1, Placenta Growth Factor (PlGF), human (human, UniProt P49763 21-149)
- T1 chain: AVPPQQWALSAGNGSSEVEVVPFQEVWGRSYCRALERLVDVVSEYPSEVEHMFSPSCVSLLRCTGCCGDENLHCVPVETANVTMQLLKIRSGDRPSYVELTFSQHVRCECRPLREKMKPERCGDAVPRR
- Experiment description: ELISA
The entries below are paired with their reported EC50.
Quick reminder: number only, in pM, skip the unit.

Examples from the recorded data:
{"Binder": "HC 8/SLC 5 (antibody) chain 1: GQGTLVTVSSASTKGPSVQPVLHQPPAMSSALGTTIRLTCTLRNDHDIGVYSVYWYQQRPGHPPRFLLRYFSQSDKSQGPQVPPRFSGSKDVARNRGYLSISELQPEDEAMYYCAMGARSRCWPRGFQSKHNSVTHVFGSGTQLTVLSQPKATPSVTLFPPSSEELQANKATLVCLMNDFYPGILTVTWKADGTPITQGVEMTTPSKQSNNKYAASSYLSLTPEQWRSRRSYSCQVMHEGSTVEKTVAPAECS chain 2: MSWAPVLLMLFVYCTGCGPQPVLHQPPAMSSALGTTIRLTCTLRNDHDIGVYSVYWYQQRPGHPPRFLLRYFSQSDKSQGPQVPPRFSGSKDVARNRGYLSISVTHVFGSGTQLTVLSQPKAQVQLVQ", "Metric": "EC50", "Measured value": 289}
{"Binder": "HC 4/SLC 3 (antibody) chain 1: GQGTLVTVSSASTKQPVLHQPPAMSSALGTTIRLTCTLRNDHDIGVYSVYWYQQRPGHPPRFLLRYFSQSDKSQGPQVPPRFSGSKDVARNRGYLSISELQPEDEAMYYCAMGARSRCWPRGFQSKHNSVTHVFGSGTQLTVLSQPKATPSVTLFPPSSEELQANKATLVCLMNDFYPGILTVTWKADGTPITQGVEMTTPSKQSNNKYAASSYLSLTPEQWRSRRSYSCQVMHEGSTVEKTVAPAECS chain 2: MSWAPVLLMLFVYCTGCGPQPVLHQPPAMSSALGTTIRLTCTLRNDHDIGVYSVYWYQQRPGHPPRFLLRYFSQSDKSQGPQVPPRFSGSKDVARNRGYLSISVTHVFGSGTQLTVLSQPQVQLVQ", "Metric": "EC50", "Measured value": 147}
{"Binder": "HC 2/SLC 2 (antibody) chain 1: GQGTLVTVSSASQPVLHQPPAMSSALGTTIRLTCTLRNDHDIGVYSVYWYQQRPGHPPRFLLRYFSQSDKSQGPQVPPRFSGSKDVARNRGYLSISELQPEDEAMYYCAMGARSRCWPRGFQSKHNSVTHVFGSGTQLTVLSQPKATPSVTLFPPSSEELQANKATLVCLMNDFYPGILTVTWKADGTPITQGVEMTTPSKQSNNKYAASSYLSLTPEQWRSRRSYSCQVMHEGSTVEKTVAPAECS chain 2: MSWAPVLLMLFVYCTGCGPQPVLHQPPAMSSALGTTIRLTCTLRNDHDIGVYSVYWYQQRPGHPPRFLLRYFSQSDKSQGPQVPPRFSGSKDVARNRGYLSISVTHVFGSGTQLTVLSQQVQLVQ", "Metric": "EC50", "Measured value": 49}

// next item, EC50 requested
Data request: Requested field: EC50. Item: HC 9/SLC 4 (antibody) chain 1: GQGTLVTVSSASTKGPSVFQPVLHQPPAMSSALGTTIRLTCTLRNDHDIGVYSVYWYQQRPGHPPRFLLRYFSQSDKSQGPQVPPRFSGSKDVARNRGYLSISELQPEDEAMYYCAMGARSRCWPRGFQSKHNSVTHVFGSGTQLTVLSQPKATPSVTLFPPSSEELQANKATLVCLMNDFYPGILTVTWKADGTPITQGVEMTTPSKQSNNKYAASSYLSLTPEQWRSRRSYSCQVMHEGSTVEKTVAPAECS chain 2: MSWAPVLLMLFVYCTGCGPQPVLHQPPAMSSALGTTIRLTCTLRNDHDIGVYSVYWYQQRPGHPPRFLLRYFSQSDKSQGPQVPPRFSGSKDVARNRGYLSISVTHVFGSGTQLTVLSQPKQVQLVQ
Data returned: 164
